test: Inhibition of urease (unknown origin) assessed as ammonia synthesis after 30 mins by microplate reader analysis; set-up: species or system Homo sapiens
Endpoint label: pKi
The meaning of pKi here: minus log10 of the concentration in molar units.

Query :: Item `COc1ccc(-c2nnc3sc(-c4ccoc4)nn23)cc1` has what recorded pKi?
Result :: 6.35
